System: IGF1R
Details: concentration: 1 μM,replicates: in singlicate; n = 1;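 further: KINOMEscan kinase panel screen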
MEASUREMENT NAME: %Inh (%)
Return type: number; implicit unit %.

Please review the following examples before continuing.
{"COMPOUND": "Cc1cccc(-c2nc(Nc3ccncc3)c3sccc3n2)n1", "SYSTEM UNDER TEST": "IGF1R", "%Inh, %": 8}
{"COMPOUND": "N#Cc1cccc(C(=O)NC2CCN(c3ccnc(Nc4ccc(F)cc4)n3)C2)c1 (centres unmarked)", "SYSTEM UNDER TEST": "IGF1R", "%Inh, %": 0}
{"COMPOUND": "CS(=O)(=O)Nc1ccc(-c2ccnc3[nH]ccc23)cc1", "SYSTEM UNDER TEST": "IGF1R", "%Inh, %": 2}

Exam item: What measured %Inh goes with `Cn1ccc2ncnc(Oc3ccc(NC(=O)Nc4cnn(C(C)(C)C)c4)c(Cl)c3)c21` ?
Marked response: 25

Exam item: And for `Cc1ccc(C(=O)Nc2ccc(Oc3ccc4nc(NC(=O)C5CC5)cn4c3)c(F)c2)c(=O)n1-c1ccccc1` ?
Marked response: 0

Exam item: And for `COC(=O)Nc1nc2cc(Oc3ccc(NC(=O)Nc4cc(C(F)(F)F)ccc4Cl)cc3)ccc2[nH]1.Cl` ?
Marked response: 0

Exam item: And for `C[C@@H](Oc1cc(-n2cnc3cc(-c4ccncc4)ccc32)sc1C(N)=O)c1ccccc1Cl` ?
Marked response: 14

Exam item: And for `COc1cccc(C2=C(Nc3cccc(Cl)c3)C(=O)NC2=O)c1` ?
Marked response: 7

---

System: CLK2
Settings: concentration: 1 μM,replicates: in singlicate; n = 1
Label key: 1.0 means %Inh under 1%; 0.0 means %Inh of 1% or more.

These solved cases illustrate the format of a correct answer.
{"COMPOUND": "COc1cccc(C2=C(Nc3cccc(Cl)c3)C(=O)NC2=O)c1 [SB-341556]", "ASSIGNED CATEGORY": 0.0}
{"COMPOUND": "COc1cc2ncn(-c3cc(OCC4CCCCC4)c(C(N)=O)s3)c2cc1OC [GSK204559]", "ASSIGNED CATEGORY": 0.0}
{"COMPOUND": "CNC(=O)c1ccccc1Nc1nc(Nc2cccc(CS(C)(=O)=O)c2)ncc1C.O=CO [GSK1520489]", "ASSIGNED CATEGORY": 0.0}
{"COMPOUND": "COC(=O)c1cccc(NC(=O)NC2CCN(c3ccnc(Nc4cc(OC)c(OC)c(OC)c4)n3)C2)c1 (stereo not drawn) [GSK1379767]", "ASSIGNED CATEGORY": 1.0}
{"COMPOUND": "COc1cccc(CNC(=O)NC2CCN(c3ccnc(Nc4cc(OC)c(OC)c(OC)c4)n3)C2)c1 (stereo not drawn) [GSK1379765]", "ASSIGNED CATEGORY": 1.0}

Exam item: Find out if reported %Inh for `CN(c1ccccc1CNc1nc(Nc2ccc3c(c2)CC(=O)N3)ncc1C(F)(F)F)S(C)(=O)=O` is less than 1%
Marked response: 0.0

Exam item: And for COC(=O)c1cccc(NC(=O)NC2CCN(c3ccnc(NCc4ccc(F)cc4)n3)CC2)c1 [GSK1379860] ?
Marked response: 1.0

Exam item: And for O=c1[nH]cc(-c2ccc(O)cc2)c2sc(-c3ccncc3)cc12 [GSK1033723] ?
Marked response: 0.0

Exam item: And for Cc1ccc(CC(=O)N2CCc3cc(-c4cn(C)c5ncnc(N)c45)ccc32)cc1 [GSK2634758] ?
Marked response: 1.0

---

Catalogue of molecules with associated %Inh
Tested on: MAP3K4
Details: concentration: 1 μM,replicates: in singlicate; n = 1
Return type: number; implicit unit %.

Please review the following examples before continuing.
{"MOLECULE": "Cc1ccc(C(=O)Nc2ccc(Oc3ccc4nc(NC(=O)C5CC5)cn4c3)c(F)c2)c(=O)n1-c1ccccc1", "%Inh (%)": 12}
{"MOLECULE": "O=C1NCCc2[nH]c(-c3ccncc3)cc21", "%Inh (%)": 3}
{"MOLECULE": "Cl.Cl.NC[C@H](CC1CCCCC1)NC(=O)c1ccc(-c2ccnc3[nH]ccc23)s1 [GSK1581428]", "%Inh (%)": 10}
{"MOLECULE": "Cn1ccc2ncnc(Oc3ccc(NC(=O)Nc4ccnc(C(F)(F)F)c4)c(Cl)c3)c21", "%Inh (%)": 0}
{"MOLECULE": "Cc1ccc(CC(=O)N2CCc3cc(-c4cn(C)c5ncnc(N)c45)ccc32)cc1 [GSK2634758]", "%Inh (%)": 90.3}

Exam item: Item CN(c1ccc2c(c1)nc(NCc1ccc(F)cc1)n2C)c1ccnc(Nc2ccc(CS(C)(=O)=O)cc2)n1.Cl [GW813244] with MAP3K4 - %Inh?
Marked response: 2

Exam item: And for `O=C(Nc1cccc(C(F)(F)F)c1)c1cccc(Oc2ccc3nccn3n2)c1` ?
Marked response: 22

Exam item: And for Cc1nnc(-c2ccc3occ(-c4ccc(S(C)=O)cc4)c3n2)o1 (stereo not drawn) ?
Marked response: 1

Exam item: And for COC(=O)c1cccc(NC(=O)NC2CCN(c3ccnc(NCc4ccc(F)cc4)n3)CC2)c1 [GSK1379860] ?
Marked response: 22

---

Test system: PLK3
Details: concentration: 1 μM,replicates: in singlicate; n = 1
MEASUREMENT NAME: %Inh
State the value, then name its unit.

Please review the following examples before continuing.
{"MOLECULE": "Cc1ccc(Nc2ccnc(Nc3ccc4c(c3)CS(=O)(=O)C4)n2)cc1O.Cl [GW579362]", "%Inh": "4%"}
{"MOLECULE": "Cc1cccc2c(-c3ccncc3)c(-c3ccc(F)cc3)nn12.Cl [GW461487]", "%Inh": "0%"}
{"MOLECULE": "CN(c1cccc(CNc2nc(Nc3ccc4c(c3)CC(=O)N4)ncc2C(F)(F)F)c1)S(C)(=O)=O", "%Inh": "69%"}
{"MOLECULE": "CN1CCN(CCCNc2nccc(-c3c(-c4ccc(F)cc4)nn4cc(C(N)=O)ccc34)n2)CC1 [GW622475]", "%Inh": "0%"}
{"MOLECULE": "CN(c1ccc2c(c1)nc(NCc1ccc(F)cc1)n2C)c1ccnc(Nc2ccc(CS(C)(=O)=O)cc2)n1.Cl [GW813244]", "%Inh": "21%"}
{"MOLECULE": "CCN1CCN(CCCC(=O)Nc2n[nH]c3nc(-c4ccc(O)cc4)c(Br)cc23)CC1 [SB-731579]", "%Inh": "0%"}

Exam item: What measured %Inh goes with `Cc1ccc(C(=O)Nc2ccc(Oc3ccc4nc(NC(=O)C5CC5)cn4c3)c(F)c2)c(=O)n1-c1ccccc1` ?
Marked response: 0%

Exam item: And for COC(=O)c1cccc(NC(=O)NC2CCN(c3ccnc(NCc4ccc(F)cc4)n3)CC2)c1 [GSK1379860] ?
Marked response: 0%

---

Test system: MAP3K15
Conditions: concentration: 1 μM,replicates: in singlicate; n = 1
MEASUREMENT NAME: %Inh (%)
Return type: number; implicit unit %.

Please review the following examples before continuing.
{"COMPOUND": "CS(=O)c1ccc(-c2coc3ccc(-c4n[nH]c(=O)o4)cc23)cc1 (centres unmarked)", "%Inh, %": 37}
{"COMPOUND": "Cn1ccc2ncnc(Oc3ccc(NC(=O)Nc4cncc(C(F)(F)F)c4)c(Cl)c3)c21", "%Inh, %": 0}
{"COMPOUND": "CS(=O)(=O)Nc1ccc(-c2ccnc3[nH]ccc23)cc1 [GSK993273]", "%Inh, %": 37}
{"COMPOUND": "CC(C)S(=O)(=O)N1CCN(Cc2ccc3c(c2)nc(NC(=O)c2ccsc2)n3C[C@H](O)c2ccccc2)CC1 [GW635815]", "%Inh, %": 0}

Shift focus to the following entry.
Exam item: Item `Cn1ccc2ncnc(Oc3ccc(NC(=O)Nc4cnn(C(C)(C)C)c4)c(Cl)c3)c21` with MAP3K15 - %Inh?
Marked response: 0

---

System: PIM1
Conditions: concentration: 1 μM,replicates: in singlicate; n = 1
Label key: class 1 means %Inh under 10%; class 0 means %Inh of 10% or more.

{"COMPOUND": "CC(C)c1nc(-c2cccc(NS(=O)(=O)c3ccccc3)c2)c(-c2ccnc(Nc3ccc4c(c3)CN(C)CC4)n2)s1", "ASSIGNED CATEGORY": "class 0"}
{"COMPOUND": "NC(=O)c1ccc(-c2cc3ncnc(SCC(=O)O)c3s2)cc1", "ASSIGNED CATEGORY": "class 1"}

Here is another compound to look at.
Exam item: Find out if reported %Inh for `Cn1ccc2ncnc(Oc3ccc(NC(=O)Nc4cnn(C(C)(C)C)c4)c(Cl)c3)c21` is less than 10%
Marked response: class 1

---

Catalogue of compounds with associated %Inh
Test system: PIK3CG
Conditions: concentration: 1 μM,replicates: in singlicate; n = 1
Return type: number; implicit unit %.

Please review the following examples before continuing.
{"COMPOUND": "CCn1c(-c2nonc2N)nc2cncc(CNC3CCNCC3)c21.Cl", "%Inh (%)": 0}
{"COMPOUND": "Cl.Cl.NC[C@H](CC1CCCCC1)NC(=O)c1ccc(-c2ccnc3[nH]ccc23)s1", "%Inh (%)": 0}
{"COMPOUND": "Cn1ccc2ncnc(Oc3ccc(NC(=O)Nc4cncc(C(F)(F)F)c4)c(Cl)c3)c21", "%Inh (%)": 0}
{"COMPOUND": "O=C(NCC1CC1)c1ccc(-c2cc(C(=O)NC3CC3)ccc2F)cc1", "%Inh (%)": 0}
{"COMPOUND": "c1ccc(Oc2ccc(Nc3ccnc4ccc(-c5ccccn5)cc34)cc2)cc1", "%Inh (%)": 0}
{"COMPOUND": "Cc1ccc(Nc2ccnc(Nc3ccc4c(c3)CS(=O)(=O)C4)n2)cc1O.Cl", "%Inh (%)": 31}
{"COMPOUND": "CC(C)c1nc(-c2cccc(NS(=O)(=O)c3ccccc3)c2)c(-c2ccnc(Nc3ccc4c(c3)CN(C)CC4)n2)s1", "%Inh (%)": 4}
{"COMPOUND": "COc1ccc(Nc2nccc(N3CCC(NC(=O)c4cccc(C#N)c4)C3)n2)cc1 (stereo not drawn)", "%Inh (%)": 0}

Exam item: Item `O=C(Nc1n[nH]c2cc(-c3ccco3)ccc12)C1CC1` with PIK3CG - %Inh?
Marked response: 0

Exam item: And for `Cc1n[nH]c2cc(Nc3ccnc(Nc4cccc(CN5CCOCC5)c4)n3)ccc12` ?
Marked response: 6

Exam item: And for `NC(=O)c1ccc(-c2cc3ncnc(SCC(=O)O)c3s2)cc1` ?
Marked response: 0

Exam item: And for `Cn1ccc2ncnc(Oc3ccc(NC(=O)Nc4cccc(C(F)(F)F)c4)c(Cl)c3)c21` ?
Marked response: 0

Values were extracted from paper PMC5540273.
